# test.system: human NAMPT (Homo sapiens (Human), UniProt P43490)
# Sequence (P43490 whole entry): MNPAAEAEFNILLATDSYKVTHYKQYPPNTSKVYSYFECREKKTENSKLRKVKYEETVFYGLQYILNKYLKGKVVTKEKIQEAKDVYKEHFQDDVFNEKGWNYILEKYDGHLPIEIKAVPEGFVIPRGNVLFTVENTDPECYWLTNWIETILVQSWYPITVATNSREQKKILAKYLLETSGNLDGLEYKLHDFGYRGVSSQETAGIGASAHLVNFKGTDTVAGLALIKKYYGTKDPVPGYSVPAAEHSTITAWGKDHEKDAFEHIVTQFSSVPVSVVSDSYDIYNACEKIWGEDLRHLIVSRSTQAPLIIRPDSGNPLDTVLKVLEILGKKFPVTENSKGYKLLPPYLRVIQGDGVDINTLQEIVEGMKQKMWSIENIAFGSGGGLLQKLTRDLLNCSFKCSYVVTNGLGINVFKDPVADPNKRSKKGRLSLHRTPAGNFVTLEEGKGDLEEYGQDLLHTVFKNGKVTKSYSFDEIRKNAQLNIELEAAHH
# test.name: NMN fluorescence biochemical assay (human recombinant NAMPT enzyme assay)
reported.endpoint: EC50 (µM)

CC(C)C(=O)N1CC2CC(C1)C2Cc1ccc(NC(=O)OCc2cnco2)cc1 (centres unmarked) | 9.67
CC(=O)N1CCC(CCc2ccc(NC(=O)OCc3cnco3)cc2)CC1 | 27.5
O=C(Nc1ccc(Cc2ccncc2)cc1)OCc1cnsc1 | 11.6

1. Cc1ccc(C(=O)NCc2ccc(NC(=O)OCc3ccc(F)cc3)cc2)cn1
2. COC(=O)N1CC2(CC(Cc3ccc(NC(=O)OCc4cnco4)cc3F)C2)C1
**Query** Between 1 and 2 , which one shows the larger EC50 value? Return value: the label identifying the chosen record.
**Result** 2
(2: 6.78 µM, 1: 3.47 µM)

====

# test.system: human NAMPT (Homo sapiens (Human), UniProt P43490)
# test.name: NMN fluorescence biochemical assay (human recombinant NAMPT enzyme assay)
reported.endpoint: AC1.4 Human (µM)

CC(=O)N1CCC(Cc2ccc(NC(=O)OCc3cnco3)cc2F)CC1 | 0.16

1. O=C(Nc1ccc(Cc2ccncc2)cc1)OCc1ccnnc1
2. CC(C)(C)OC(=O)N1CC(OCc2ccc(NC(=O)OCc3ccc(Cl)cc3)cc2)C1
3. O=C(Nc1ccc(CNC(=O)c2c(F)cncc2F)cc1)OCc1ccc(Cl)cc1
4. NC(=O)c1ccc(COC(=O)Nc2ccc(CN3CCC[C@@H]3c3cccnc3)cc2)cc1
**Query** Order each entry by recorded AC1.4 Human, climbing from the minimum. # format: label list in the order the request specifies
**Result** 4, 3, 2, 1
(4: 0.05 µM, 3: 1.22 µM, 2: 3.88 µM, 1: 8.05 µM)

====

# test.system: human NAMPT (Homo sapiens (Human))
# test.name: NMN fluorescence biochemical assay (human recombinant NAMPT enzyme assay)
reported.endpoint: AC1.4 Human (µM)

Cc1ccc(C(=O)NCc2ccc(NC(=O)OCc3ccc(Cl)cc3)cc2)nc1 | 1.96
O=C(Cc1ccc(NC(=O)OCc2ccc(Cl)cc2)cc1)NC1CCOCC1 | 5.08

a. CN([C@@H]1CCOC1)S(=O)(=O)c1ccc(NC(=O)OCc2ccc(Cl)cc2)cc1
b. CC(C)C(=O)N1CCC2(CC(c3ccc(NC(=O)OCc4cnco4)cc3F)C2)C1 (single isomer, unassigned) [Compound 361]
**Query** Lab note: check whether a or b has the lower measured AC1.4 Human. Refer to your chosen entry by its label in the reply.
**Result** b
(b: 0.08 µM, a: 10.15 µM)

P. O=C(Nc1ccc(C2CCN(CC(F)(F)F)CC2)cc1)OCc1cnco1
Q. CC(=O)N1CCC2(CC(c3ccc(NC(=O)OCc4cnco4)cc3F)C2)C1 (single isomer, unassigned) [Compound 372]
R. CC(C)n1nccc1C(=O)N[C@@H](C)c1ccc(NC(=O)OCc2ccc(Cl)cc2)cc1
S. O=C1CN(C(=O)C(F)(F)c2ccc(NC(=O)OCc3ccc(Cl)cc3)cc2)CCN1
**Query** rank_up(items): orders items by reported AC1.4 Human in ascending numerical order. // rank by listing labels in the order requested
**Result** Q, P, R, S

a. O=C(Nc1ccc(Cc2ccncc2)cc1)OCc1cnco1
b. COC(=O)N1CC2(CC(Cc3ccc(NC(=O)OCc4cnco4)cc3F)C2)C1
c. Cc1ccc(C(=O)N[C@@H](C)c2ccc(NC(=O)OCc3ccc(Cl)cc3)cc2)cn1
d. CN1CC(=O)NC[C@@H]1c1ccc(NC(=O)OCc2ccc(C(F)F)cc2)cc1
**Query** Sequence the entries by AC1.4 Human, beginning with the highest number. Would you mind listing the labels in the order requested?
**Result** d, a, c, b

I. CS(=O)(=O)N1CCC[C@H](c2ccc(NC(=O)OCc3cnco3)cc2)C1
II. CCn1nccc1C(=O)NCc1ccc(NC(=O)OCc2ccc(Cl)cc2)cc1
**Query** Which of these two has the smaller recorded AC1.4 Human: I or II ? Pick one and reply with its label.
**Result** I
(I: 0.33 µM, II: 1.39 µM)

====

# test.name: Plasma protein binding (PPB), mouse
# Format: in vitro ADME
Below, each of the molecules is paired with its reported fraction unbound value.
# respond with the number and nothing more

CN(C)C(=O)N1CC2(CC(c3ccc(NC(=O)OCc4cnco4)cc3F)C2)C1 | 0.043

**Query** Look up fraction unbound for this molecule: `CN(C)S(=O)(=O)N1CC2(CC(Cc3ccc(NC(=O)OCc4cnco4)cc3F)C2)C1`
**Result** 0.01

====

# test.name: Brain exposure assay in mice (brain-to-plasma ratio after oral administration)
# Format: in vivo
# measurement.context: male, C57BL/6JNIFDC, oral, 100 mg/kg; mouse, 2 hr; total brain-plasma concentration ratio
reported.endpoint: Kp at 2 h

CN(C)C(=O)N1CC2(CC(c3ccc(NC(=O)OCc4cnco4)cc3F)C2)C1 [Compound 400] | 0.43
CN(C)S(=O)(=O)N1CC2(CC(Cc3ccc(NC(=O)OCc4cnco4)cc3F)C2)C1 [Compound 399] | 0.44
CN(C)C(=O)N1CCC[C@H](c2ccc(NC(=O)OCc3cnco3)cc2)C1 [Compound 376] | 0.16

1. CN(C)S(=O)(=O)N1CCC(Cc2ccc(NC(=O)OCc3cnco3)cc2)CC1 [Compound 27]
2. CN(C)C(=O)N1CCC(Cc2ccc(NC(=O)OCc3cnco3)cc2F)CC1 [Compound 449]
**Query** Field: entry with larger Kp at 2 h (options 1 / 2 ). Selection: enter the item's label.
**Result** 2
(2: 0.42, 1: 0.29)

====

# test.system: human NAMPT (Homo sapiens (Human))
# test.name: NMN fluorescence biochemical assay (human recombinant NAMPT enzyme assay)
pEC50: −log10 of the molar value.
reported.endpoint: pEC50

Examples from the recorded data:
C[C@H](NC(=O)c1cccnc1)c1ccc(NC(=O)OCc2ccc(Cl)cc2)cc1 | 5.50
COc1ccc(COC(=O)Nc2ccc(NS(=O)(=O)Cc3ccccc3)cc2)cc1 | 5.58
O=C(Nc1ccc(CNC(=O)c2ccncc2F)cc1)OCc1ccc(Cl)cc1 | 5.13
CC(C)C(=O)N1CCC(Cc2ccc(NC(=O)OCc3ccc(Cl)cc3)cc2)CC1 | 5.76
CN1CCC(C(=O)NCc2ccc(NC(=O)OCc3ccc(Cl)cc3)cc2)CC1=O (centres unmarked) | 4.82
CC1CCCN1C(=O)Cc1ccc(NC(=O)OCc2ccc(Cl)cc2)cc1 (centres unmarked) | 5.08
CC(C)OC(=O)N1CCC(Cc2ccc(NC(=O)OCc3cnco3)cc2)CC1 | 4.71
O=C(Cc1ncco1)NCc1ccc(NC(=O)OCc2ccc(Cl)cc2)cc1 | 4.70
CC(=O)N1CCC2(CC(Cc3ccc(NC(=O)OCc4cnco4)cc3F)C2)C1 (centres unmarked) | 5.38
O=C(Nc1ccc(CC2C3CCC2CN(C2COC2)C3)cc1)OCc1cnco1 (centres unmarked) | 4.28

I. CC1(C)CCN1C(=O)Cc1ccc(NC(=O)OCc2ccc(Cl)cc2)cc1
II. Cc1ccc(NC(=O)Cc2ccc(NC(=O)OCc3ccc(Cl)cc3)cc2)cn1
**Query** Hey, between I and II which has a smaller measured pEC50? Use the label to indicate which entry you chose.
**Result** I

P. CCC(=O)N1CCC2(CC(Cc3ccc(NC(=O)OCc4cnco4)cc3F)C2)C1 (centres unmarked)
Q. C[C@H](NC(=O)c1ocnc1C1CC1)c1ccc(NC(=O)OCc2ccc(Cl)cc2)cc1
R. O=C(Nc1ccc(Cc2ccncc2)cc1)OCc1ccnnc1
S. CS(=O)(=O)N1CCC2(CC(c3ccc(NC(=O)OCc4cnco4)cc3F)C2)C1 (single isomer, unassigned) [Compound 360]
**Query** Ranking field: pEC50; order: falling. Rank the items, then write their labels in that order.
**Result** S, P, Q, R

====

# test.system: human NAMPT (Homo sapiens (Human))
# test.name: NMN fluorescence biochemical assay (human recombinant NAMPT enzyme assay)
pEC50: −log10 of the molar value.
reported.endpoint: pEC50

Solved entries:
COCCN1CCC(Cc2ccc(NC(=O)OCc3cnco3)cc2)CC1 | 4.73
O=C(Nc1ccc(CC2CCN(S(=O)(=O)C3CC3)CC2)cc1)OCc1cnco1 | 4.91

I. CC(C)C(=O)N1CCC(c2ccc(NC(=O)OCc3cnco3)cc2)CC1
II. O=C(Nc1ccc(CNC(=O)c2cnco2)cc1)OCc1ccc(Cl)cc1
III. Cc1nocc1C(=O)N[C@@H](C)c1ccc(NC(=O)OCc2ccc(Cl)cc2)cc1
**Query** Order the 3 compounds from highest to lowest pEC50. Answer by listing the labels in the order asked for.
**Result** III, II, I
(III: 5.37, II: 4.95, I: 4.68)

I. Cc1ccc(S(=O)(=O)NCc2ccc(NC(=O)OCc3ccc(Cl)cc3)cc2)cn1
II. CCc1ccc(C(=O)N[C@@H](C)c2ccc(NC(=O)OCc3ccc(Cl)cc3)cc2)cn1
III. COCCn1nccc1C(=O)N(C)Cc1ccc(NC(=O)OCc2ccc(Cl)cc2)cc1
**Query** Reorder the items by pEC50, least to greatest. I'd appreciate it if you listed the labels in the requested order.
**Result** I, III, II
(I: 4.74, III: 5.78, II: 6.05)

I. COCCn1nccc1C(=O)NCc1ccc(NC(=O)OCc2ccc(Cl)cc2)cc1
II. CN(C)C(=O)N1CCC(c2ccc(NC(=O)OCc3cnco3)cc2F)CC1
III. O=C(Cn1cccn1)NCc1ccc(NC(=O)OCc2ccc(Cl)cc2)cc1
**Query** Rank the items in ascending order with respect to pEC50. Please respond by ranking the labels in the order requested.
**Result** II, III, I
(II: 4.72, III: 5.03, I: 5.23)

a. CC1(O)CCN(C(=O)Cc2ccc(NC(=O)OCc3ccc(Cl)cc3)cc2)CC1
b. CN(C)C(=O)N1CC2(CC(Cc3ccc(NC(=O)OCc4cnco4)cc3F)C2)C1
c. CN(C)C(=O)N1CCC(c2ccc(NC(=O)OCc3cnco3)cc2)CC1
d. O=C(Nc1ccc(Cc2ccncc2)cc1)OCc1cnoc1
**Query** Put the entries in order of pEC50, starting with the largest number. Respond with an ordered listing of the labels, as requested.
**Result** b, a, c, d
(b: 5.48, a: 5.17, c: 4.66, d: 4.41)

The reported numbers originate from patent US20240279215A1.
